# Kd listing for each entry below
- TARGET ENTITY: JAK2 (JH1domain-catalytic, Y1007F,Y1008F) kinase (Homo sapiens, UniProt O60674, Y1007F/Y1008F)
- Construct: JAK2 (JH1domain-catalytic, Y1007F,Y1008F) kinase was expressed as N-terminal fusion
- Sequence (O60674 849-1124 Y1007F/Y1008F limits assumed): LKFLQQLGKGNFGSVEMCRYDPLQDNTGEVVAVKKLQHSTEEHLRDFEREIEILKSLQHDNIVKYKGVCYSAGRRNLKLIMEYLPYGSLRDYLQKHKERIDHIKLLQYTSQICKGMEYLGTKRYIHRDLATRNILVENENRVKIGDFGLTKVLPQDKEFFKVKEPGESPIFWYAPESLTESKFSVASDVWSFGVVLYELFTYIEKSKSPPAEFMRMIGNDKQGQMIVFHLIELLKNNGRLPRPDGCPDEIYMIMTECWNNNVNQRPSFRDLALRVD
- ASSAY DETAILS: JAK2 JH1 Domain Binding Assay
- CONDITION LABEL: qPCR readout

{"COMPOUND": "Cc1cn(-c2cc(Nc3nc4ncc(Oc5cnn6ccncc56)c(Cl)c4n3C)cc(C(F)(F)F)c2)cn1", "RESULT": "< 10 nM"}

[in] Need Kd of COc1c(Oc2cnn3ccncc23)cnc2nc(Nc3cc(C4CC4)cn([C@@H]4CC[C@@H]4O)c3=O)n(C)c12 (single isomer, unassigned) , thanks.
[out] < 10 nM

[in] Need Kd of CNc1cn2ncc(Oc3cnc4nc(Nc5cc(C(C)(C)C)n([C@@H]6CCN(C)C6)n5)n(C)c4c3Cl)c2cn1 , thanks.
[out] 50 to 1000 nM

[in] Need Kd of CNc1nccn2ncc(Oc3cnc4nc(Nc5cc(C(F)(F)F)c(C#N)n(C)c5=O)n(C)c4c3Cl)c12 , thanks.
[out] 50 to 1000 nM

[in] Need Kd of CN1CC[C@H](n2nc(Nc3nc4ncc(Oc5cnc6sccc6c5)c(Cl)c4n3C)cc2C(C)(C)C)C1 , thanks.
[out] 10 to 50 nM

[in] Need Kd of CNc1nccn2ncc(Oc3cnc4nc(Nc5cc(OC6CN(C)C6)cc(C(F)(F)F)c5)n(C)c4c3Cl)c12 , thanks.
[out] 10 to 50 nM

[in] Need Kd of COc1nccn2ncc(Oc3cnc4nc(Nc5cc(C(F)(F)F)cn(C)c5=O)n(C)c4c3Cl)c12 , thanks.
[out] < 10 nM

[in] Need Kd of Cc1n[nH]c2ncc(Oc3cnc4nc(Nc5cc(C(C)(C)C)n([C@@H]6CCOC6)n5)n(C)c4c3)cc12 , thanks.
[out] < 10 nM

[in] Need Kd of COc1c(Oc2cnn3ccncc23)cnc2nc(Nc3cc(C4CC4)cn([C@H]4CC[C@H]4O)c3=O)n(C)c12 (single isomer, unassigned) , thanks.
[out] < 10 nM

[in] Need Kd of Cn1c(Nc2cc(C(F)(F)F)cn(-c3cccnc3)c2=O)nc2ncc(Oc3cnn4ccncc34)c(Cl)c21 , thanks.
[out] < 10 nM

----------
- TARGET ENTITY: JAK2 (JH1domain-catalytic, Y1007F,Y1008F) kinase (Homo sapiens, UniProt O60674, Y1007F/Y1008F)
- Construct: JAK2 (JH1domain-catalytic, Y1007F,Y1008F) kinase was expressed as N-terminal fusion
- ASSAY DETAILS: JAK2 JH1 Domain Binding Assay
- CONDITION LABEL: qPCR readout
pKd: −log10 of the molar value.
PROPERTY MEASURED: pKd

The cases that follow already have their pKd on record.
{"COMPOUND": "CNc1cn2ncc(Oc3cnc4nc(Nc5cc(CN6CCCC6)cc(C(F)(F)F)c5)n(C)c4c3Cl)c2cn1 [Example I-316]", "RESULT": "7.30 to 8.00"}
{"COMPOUND": "CNc1cn2ncc(Oc3cnc4nc(Nc5cc(CN6CC[C@H](OC)C6)cc(C(F)(F)F)c5)n(C)c4c3Cl)c2cn1 [Example I-307]", "RESULT": "6.00 to 7.30"}
{"COMPOUND": "Cn1c(Nc2cc(C3CC3)cn(CCCN3CCCC(F)(F)C3)c2=O)nc2ncc(Oc3cnn4ccncc34)c(Cl)c21 [Example I-129]", "RESULT": "7.30 to 8.00"}
{"COMPOUND": "CN1CC[C@@H](n2nc(Nc3nc4ncc(Oc5cnn6cc(F)ccc56)c(Cl)c4n3C)cc2C(C)(C)C)C1 [Example I-170]", "RESULT": "7.30 to 8.00"}

Turning now to a further record.
[in] Need pKd of COCc1c[nH]c2ncc(Oc3cnc4nc(Nc5cc(C(C)(C)C)n([C@H]6CCOC6)n5)n(C)c4c3)cc12 [Example I-12] , thanks.
[out] > 8.00

----------
# Kd listing for each entry below
- TARGET ENTITY: JAK2 (JH1domain-catalytic, Y1007F,Y1008F) kinase (Homo sapiens, UniProt O60674, Y1007F/Y1008F)
- Construct: JAK2 (JH1domain-catalytic, Y1007F,Y1008F) kinase was expressed as N-terminal fusion
- ASSAY DETAILS: JAK2 JH1 Domain Binding Assay
- CONDITION LABEL: qPCR readout

The cases that follow already have their Kd on record.
{"MOLECULE": "Cn1c(Nc2cc(N3CCC(O)C3)cc(C(F)(F)F)c2)nc2ncc(Oc3cnn4ccncc34)c(Cl)c21 (stereo in doubt)", "Kd": "< 10 nM"}
{"MOLECULE": "Cn1c(Nc2cc(C(F)(F)C(F)(F)F)n([C@@H]3CCOC3)n2)nc2ncc(Oc3cnc4ccnn4c3)c(Cl)c21", "Kd": "10 to 50 nM"}

[in] Need Kd of CNc1cn2ncc(Oc3cnc4nc(Nc5cc(CN6CC[C@@H](OC)C6)cc(C(F)(F)F)c5)n(C)c4c3Cl)c2cn1 , thanks.
[out] 10 to 50 nM

[in] Need Kd of COCCOc1nccn2ncc(Oc3cnc4nc(Nc5cc(C(F)(F)F)n(C6CC7(COC7)C6)n5)n(C)c4c3Cl)c12 , thanks.
[out] 10 to 50 nM

----------
- TARGET ENTITY: JAK2 (JH1domain-catalytic, Y1007F,Y1008F) kinase (Homo sapiens, UniProt O60674, Y1007F/Y1008F)
- Construct: JAK2 (JH1domain-catalytic, Y1007F,Y1008F) kinase was expressed as N-terminal fusion
- ASSAY DETAILS: JAK2 JH1 Domain Binding Assay
- CONDITION LABEL: qPCR readout
# Kd listing for each entry below

{"COMPOUND": "CN(C)Cc1cc(F)c(Nc2nc3ncc(Oc4cnn5ccncc45)c(Cl)c3n2C)cc1C(F)(F)F", "Kd": "< 10 nM"}
{"COMPOUND": "Cn1c(Nc2cc(C(F)(F)F)cn(CCO)c2=O)nc2ncc(Oc3cnn4ccccc34)c(Cl)c21", "Kd": "< 10 nM"}

Turning now to a further record.
[in] Need Kd of COc1c(Oc2cnn3ccncc23)cnc2nc(Nc3cc(C4CC4)cn([C@H]4C[C@H](C#N)C4)c3=O)n(C)c12 , thanks.
[out] 10 to 50 nM

----------
# Kd listing for each entry below
- TARGET ENTITY: JAK2 (JH1domain-catalytic, Y1007F,Y1008F) kinase (Homo sapiens, UniProt O60674, Y1007F/Y1008F)
- Construct: JAK2 (JH1domain-catalytic, Y1007F,Y1008F) kinase was expressed as N-terminal fusion
- ASSAY DETAILS: JAK2 JH1 Domain Binding Assay
- CONDITION LABEL: qPCR readout

The cases that follow already have their Kd on record.
{"COMPOUND": "COc1c(Oc2cnn3ccncc23)cnc2nc(Nc3cc(C(C)(C)C)n([C@H]4CCC[C@H]4O)n3)n(C)c12 (single isomer, unassigned)", "Kd": "50 to 1000 nM"}
{"COMPOUND": "COc1c(Oc2cnn3ccccc23)cnc2nc(Nc3cc(C4CC4)cn([C@@H]4CC[C@@H]4O)c3=O)n(C)c12 (single isomer, unassigned)", "Kd": "< 10 nM"}
{"COMPOUND": "Cn1c(Nc2cc(C(F)(F)F)cn([C@H]3C[C@H](O)C3)c2=O)nc2ncc(Oc3cnn4cccc(F)c34)c(C#N)c21", "Kd": "< 10 nM"}
{"COMPOUND": "Cn1c(Nc2cc(C(F)(F)F)cn(CCCN3CCCC(F)(F)C3)c2=O)nc2ncc(Oc3cnn4ccncc34)c(Cl)c21", "Kd": "10 to 50 nM"}
{"COMPOUND": "CNc1ccc2c(Oc3cnc4nc(Nc5cc(C(F)(F)F)cn(C)c5=O)n(C)c4c3)cnn2c1", "Kd": "10 to 50 nM"}
{"COMPOUND": "CNc1cn2ncc(Oc3cnc4nc(Nc5cc(-n6cnc(C)c6)cc(C(F)(F)F)c5)n(C)c4c3Cl)c2cn1", "Kd": "< 10 nM"}

[in] Need Kd of CNc1nccn2ncc(Oc3cnc4nc(Nc5cc([C@H]6CCOC6)nc(C(F)(F)F)c5)n(C)c4c3Cl)c12 (single isomer, unassigned) , thanks.
[out] 10 to 50 nM

[in] Need Kd of Cn1c(Nc2cc(C3CC3)cn([C@H]3CCCOC3)c2=O)nc2ncc(Oc3cnn4ccncc34)c(Cl)c21 (single isomer, unassigned) , thanks.
[out] < 10 nM

----------
- TARGET ENTITY: JAK2 (JH1domain-catalytic, Y1007F,Y1008F) kinase (Homo sapiens, UniProt O60674, Y1007F/Y1008F)
- Construct: JAK2 (JH1domain-catalytic, Y1007F,Y1008F) kinase was expressed as N-terminal fusion
- ASSAY DETAILS: JAK2 JH1 Domain Binding Assay
- CONDITION LABEL: qPCR readout
PROPERTY MEASURED: Kd

The cases that follow already have their Kd on record.
{"COMPOUND": "Cn1c(Nc2cc(C(C)(C)C)n([C@@H]3COC[C@H]3O)n2)nc2ncc(Oc3cnc4cnc(C5CC5)n4c3)c(Cl)c21 (single isomer, unassigned)", "Kd": "10 to 50 nM"}
{"COMPOUND": "Cc1cc2ncc(Oc3cnc4nc(Nc5cc(C(C)(C)C)n([C@H]6CCOC6)n5)n(C)c4c3Cl)cn2n1", "Kd": "10 to 50 nM"}
{"COMPOUND": "CO[C@@H]1CCN(Cc2ccc(Nc3nc4ncc(Oc5cnn6ccncc56)c(Cl)c4n3C)cc2C(F)(F)F)C1", "Kd": "< 10 nM"}

Turning now to a further record.
[in] Need Kd of CNc1nccn2ncc(Oc3cnc4nc(Nc5cc(C(F)(F)F)n([C@@H]6CCOC6)n5)n(C)c4c3Cl)c12 , thanks.
[out] 10 to 50 nM
